Biological target: IRAK4 (Homo sapiens)
Sequence (Q9NWZ3 whole entry): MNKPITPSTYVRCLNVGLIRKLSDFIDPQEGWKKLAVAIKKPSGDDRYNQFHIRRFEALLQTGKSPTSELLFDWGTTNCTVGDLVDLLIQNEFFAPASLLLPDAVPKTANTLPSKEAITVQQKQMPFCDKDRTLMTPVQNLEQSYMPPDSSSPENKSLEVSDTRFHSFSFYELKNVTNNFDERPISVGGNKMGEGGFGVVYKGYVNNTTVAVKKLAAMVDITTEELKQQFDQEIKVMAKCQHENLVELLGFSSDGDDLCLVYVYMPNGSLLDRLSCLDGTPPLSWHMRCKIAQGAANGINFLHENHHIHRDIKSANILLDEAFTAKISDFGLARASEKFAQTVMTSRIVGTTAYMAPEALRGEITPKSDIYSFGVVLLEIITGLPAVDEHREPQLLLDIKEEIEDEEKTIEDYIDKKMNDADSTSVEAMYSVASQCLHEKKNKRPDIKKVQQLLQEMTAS
Experiment: RBC HotSpot Kinase Assay, IRAK4
Assay type: biochemical
Parameters: purchased Reaction Biology (RBC), HotSpot kinase assay
Settings: isolated kinase, 33P-ATP
Form field: IC50 (one value per entry).
Give the value, in units of nM, as a plain number.

Per the record, "O=C1CCCN1c1cn2c(-c3nc(N[C@@H]4CCCNC4)c(F)cc3F)cnc2cn1" has IC50 of 13

Per the record, "c1cc(N[C@@H]2CCCNC2)nc(-c2cnc3cnc(C4CC4)cn23)c1" has IC50 of 3

Per the record, "COc1cn2c(-c3cccc(N[C@H]4CNC[C@@H]4F)n3)cnc2cn1" has IC50 of 4

Per the record, "FC(F)c1cn2c(-c3cccc(N[C@H]4CNCC4(F)F)n3)cnc2cn1" has IC50 of 7

Per the record, "O=C1CCCN1c1cn2c(-c3cccc(N[C@H]4CNCC[C@@H]4F)n3)cnc2cn1" has IC50 of 10

Per the record, "C[C@@H]1CNC[C@H](Nc2cccc(-c3cnc4cnc(C5(C(F)(F)F)CC5)cn34)n2)C1" has IC50 of 1020

Per the record, CC(O)(c1cn2c(-c3cccc(N[C@H]4CNC[C@@H]4F)n3)cnc2cn1)C(F)(F)F (single isomer, unassigned) [Compound 77] has IC50 of 3

Per the record, OC1(C(F)(F)F)CCN(c2cn3c(-c4cccc(N[C@H]5CNC[C@@H]5F)n4)cnc3cn2)C1 (stereo partly drawn) has IC50 of 4

###

Molecular target: IRAK4 (Homo sapiens)
Assay: Reaction Biology NanoBRET target engagement assay, IRAK4
Assay type: cell-based
Conditions: transfected HEK-293 cells
Form field: IC50 (one value per entry).

Per the record, O=C1CCCN1c1cn2c(-c3nc(N[C@@H]4CCCNC4)c(F)cc3F)cnc2cn1 [Compound 108] has IC50 of 1 nM

Per the record, CC(C)(O)c1cn2c(-c3nc(N[C@@H]4CCCNC4)c(F)cc3F)cnc2cn1 [Compound 34] has IC50 of < 0.5 nM

Per the record, CC(O)(c1cn2c(-c3cccc(N[C@H]4CNCC[C@@H]4F)n3)cnc2cn1)C(F)(F)F (single isomer, unassigned) [Compound 80] has IC50 of < 0.5 nM

Per the record, FC(F)(F)COc1cn2c(-c3cccc(N[C@@H]4CCNC4)n3)cnc2cn1 [Compound 38] has IC50 of < 0.5 nM

Per the record, CC(C)(O)c1cn2c(-c3cccc(N[C@H]4CNCC[C@@H]4F)n3)cnc2cn1 [Compound 31] has IC50 of < 0.5 nM

Per the record, FC(F)c1cn2c(-c3cccc(N[C@H]4CNC[C@@H]4F)n3)cnc2cn1 [Compound 16] has IC50 of < 0.5 nM

Per the record, CC1(c2cn3c(-c4cccc(N[C@H]5CNCC56CC6)n4)cnc3cn2)CC1 [Compound 5] has IC50 of < 0.5 nM

Per the record, O=C1CCCN1c1cn2c(-c3cccc(N[C@H]4CNC[C@@H]4F)n3)cnc2cn1 [Compound 121] has IC50 of 2 nM

###

Molecular target: FLT3 ITD, F691L (Homo sapiens, UniProt P36888, F691L, form not given)
Construct: fused on or other part: DNA tag for qPCR detection (T7 phage fusion or DNA-tagged protein from HEK-293 cells)
Experiment: DiscoverX KINOMEscan competition binding, FLT3 ITD, F691L
MEASURED_ENDPOINT: pKd
Please note pKd is a logarithmic value: minus log10 of concentration in mol/L. Answer with that number alone.

CC1(c2cn3c(-c4cccc(N[C@H]5CNC[C@@H]5F)n4)cnc3cn2)CC1 [Compound 1] :: 9.96

Per the record, F[C@H]1CNC[C@@H]1Nc1cccc(-c2cnc3cnc(C4CC4)cn23)n1 [Compound 50] has pKd of 10.00

Per the record, Cn1cc(-c2cn3c(-c4cccc(N[C@H]5CNC[C@@H]5F)n4)cnc3cn2)cn1 [Compound 52] has pKd of 10.21

Per the record, CC1(c2cn3c(-c4cccc(N[C@@H]5CCNC5)n4)cnc3cn2)CC1 [Compound 3] has pKd of 10.15
